FYI, the data here is from ChEMBL document CHEMBL1909046.

# methodNotes: DRUGMATRIX: Phosphodiesterase PDE4 enzyme inhibition (substrate: [3H]cAMP + cAMP)
# recordedConditions: u-937; Not Active = under 50% inhibition at 10 µM

{"compound": "C=C1[C@@H]2CCC3[C@@](CC[C@@H]4[C@H](C(=O)O)C[C@@H](O[C@@H]5O[C@H](CO)[C@@H](OS(=O)(=O)[O-])[C@H](OS(=O)(=O)[O-])[C@H]5OC(=O)CC(C)C)C[C@@]34C)(C2)[C@@H]1O.[K+].[K+] (stereo partly drawn) [ATRACTYLOSIDE]", "IC50": "Not Active"}
{"compound": "CCCc1cc(=O)[nH]c(=S)[nH]1", "IC50": "Not Active"}
{"compound": "NS(=O)(=O)c1cc2c(cc1Cl)NCNS2(=O)=O [HYDROCHLOROTHIAZIDE]", "IC50": "Not Active"}

###

# targetOfAssay: Tyrosine-protein kinase Lck (Homo sapiens)
# Sequence (P06239 whole entry): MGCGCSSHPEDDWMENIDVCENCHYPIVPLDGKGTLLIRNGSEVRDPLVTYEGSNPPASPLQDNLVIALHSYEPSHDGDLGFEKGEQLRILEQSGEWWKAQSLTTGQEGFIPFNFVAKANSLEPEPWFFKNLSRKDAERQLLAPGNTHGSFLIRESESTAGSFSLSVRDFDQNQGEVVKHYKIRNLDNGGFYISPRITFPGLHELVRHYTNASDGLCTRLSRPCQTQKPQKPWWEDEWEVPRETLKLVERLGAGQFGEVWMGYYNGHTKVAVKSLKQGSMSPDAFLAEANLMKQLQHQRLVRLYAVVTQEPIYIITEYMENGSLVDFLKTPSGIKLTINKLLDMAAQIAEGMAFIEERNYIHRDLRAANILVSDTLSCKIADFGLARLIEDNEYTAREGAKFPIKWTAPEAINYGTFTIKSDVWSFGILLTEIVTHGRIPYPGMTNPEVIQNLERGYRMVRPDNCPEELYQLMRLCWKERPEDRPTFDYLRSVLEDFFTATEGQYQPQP
# methodNotes: DRUGMATRIX: Protein Tyrosine Kinase, LCK enzyme inhibition (substrate: Poly(Glu:Tyr))
# Assay type: cell-based, Insect cells
# recordedConditions: insect cells; Not Active = under 50% inhibition at 10 µM

{"compound": "CC1(C)S[C@@H]2[C@H](NC(=O)[C@H](N)c3ccc(O)cc3)C(=O)N2[C@H]1C(=O)O", "targetOfAssay": "Tyrosine-protein kinase Lck (Homo sapiens)", "IC50": "Not Active"}
{"compound": "CCCC[C@@H](CC)COC(=O)c1ccccc1C(=O)OC[C@@H](CC)CCCC [BIS(2-ETHYLHEXYL)PHTHALATE]", "targetOfAssay": "Tyrosine-protein kinase Lck (Homo sapiens)", "IC50": "Not Active"}
{"compound": "CO[C@@H]1[C@@H](O[C@@H]2O[C@H](C)[C@@H](O[C@H]3C[C@@](C)(O)[C@@H](OC(=O)CC(C)C)[C@H](C)O3)[C@H](N(C)C)[C@H]2O)[C@@H](CC=O)C[C@@H](C)[C@@H](O)/C=C/C=C/C[C@@H](C)OC(=O)C[C@H]1O", "targetOfAssay": "Tyrosine-protein kinase Lck (Homo sapiens)", "IC50": "Not Active"}

###

# targetOfAssay: Neutrophil elastase (Homo sapiens, UniProt P08246); note: in other assays of this panel Not Active means under 50% inhibition at 10 µM;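 note: inhibition of neutrophil elastase enzyme activity, measured with a p-nitroanilide-linked peptide substrate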
# Sequence (P08246 whole entry): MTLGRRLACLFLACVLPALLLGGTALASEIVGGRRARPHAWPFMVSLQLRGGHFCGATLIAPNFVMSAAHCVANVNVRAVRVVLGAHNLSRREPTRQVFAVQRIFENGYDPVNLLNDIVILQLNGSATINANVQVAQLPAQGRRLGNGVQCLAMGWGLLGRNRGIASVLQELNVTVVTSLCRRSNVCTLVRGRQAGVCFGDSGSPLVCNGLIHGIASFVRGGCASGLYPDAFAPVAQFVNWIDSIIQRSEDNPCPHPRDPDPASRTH
# Assay type: tissue-based

{"compound": "C=CC[C@@H]1/C=C(\\C)C[C@H](C)C[C@H](OC)[C@H]2O[C@@](O)(C(=O)C(=O)N3CCCC[C@H]3C(=O)O[C@H](/C(C)=C/[C@@H]3CC[C@@H](O)[C@H](OC)C3)[C@H](C)[C@@H](O)CC1=O)[C@H](C)C[C@@H]2OC [TACROLIMUS ANHYDROUS]", "IC50": "Not Active"}
{"compound": "Fc1ccc([C@@H]2CCNC[C@H]2COc2ccc3c(c2)OCO3)cc1", "IC50": "Not Active"}
{"compound": "CC[N+](CC)(CC)CCOc1cccc(OCC[N+](CC)(CC)CC)c1OCC[N+](CC)(CC)CC.[I-].[I-].[I-] [GALLAMINE TRIETHIODIDE]", "IC50": "Not Active"}

###

# methodNotes: DRUGMATRIX: Tumor Necrosis Factor (TNF), Non-Selective radioligand binding (ligand: [125I] TNF-alpha)
# Assay type: cell membranes, Membrane
# recordedConditions: u-937; Not Active = under 50% inhibition at 10 µM
observedProperty: Ki

{"compound": "CC(=O)OCC(=O)[C@@]1(OC(C)=O)[C@@H](C)C[C@H]2[C@@H]3C[C@H](F)C4=CC(=O)C=C[C@]4(C)[C@@]3(F)[C@@H](O)C[C@@]21C [DIFLORASONE DIACETATE]", "testValue": "Not Active"}
{"compound": "CN(C)[C@@H]1C(O)=C(C(N)=O)C(=O)[C@@]2(O)C(O)=C3C(=O)c4c(O)cccc4[C@@](C)(O)[C@H]3[C@H](O)[C@@H]12", "testValue": "Not Active"}
{"compound": "C[C@](N)(Cc1ccc(O)cc1)C(=O)O", "testValue": "Not Active"}
{"compound": "C=C(C)[C@@H]1[C@H]2OC(=O)[C@@H]1[C@]1(O)C[C@H]3O[C@]34C(=O)O[C@H]2[C@]14C", "testValue": "Not Active"}

Entry CC1(C)[C@@H](O[C@H]2O[C@H](C(=O)O)[C@@H](O)[C@H](O)[C@H]2O[C@@H]2O[C@H](C(=O)O)[C@@H](O)[C@H](O)[C@H]2O)CC[C@]2(C)[C@H]3C(=O)C=C4[C@@H]5C[C@@](C)(C(=O)O)CC[C@]5(C)CC[C@@]4(C)[C@]3(C)CC[C@@H]12 — recorded Ki = Not Active
